molecular target: anti-A012 antibody (Thyroglobulin PET); test: peptide competition assay in 6% BSA
pIC50: −log10 of the molar value. Where no end group is shown, it is not given here.

{"BINDER": "Ac-GGQSAESEEEELC [A012 peptide (Thyroglobulin), Ac-…]", "pIC50": 8.00}

Value source: patent US20060014212A1
